# System: Plasmodium falciparum
# Assay name: In vitro inhibition of Plasmodium falciparum in [3H]hypoxanthine incorporation assay
# Format: functional, organism-based
Each entry below carries its reported IC50.
Hi! Could you send only the number? It should be in µM, unit omitted.

{"Compound": "CC1(C)C=C2C(=O)C(C)(C)C(=O)C(C)(C)[C@@]2(O)OO1", "IC50 / µM": 36}
{"Compound": "CO[C@]12OO[C@@](C)(CO[Si](c3ccccc3)(c3ccccc3)C(C)(C)C)C=C1C(=O)C(C)(C)C(=O)C2(C)C", "IC50 / µM": 1.5}
{"Compound": "CC(=O)OC12OOC(C)(C)C=C1C(=O)C(C)(C)C(=O)C2(C)C (stereo not given)", "IC50 / µM": 20.5}

# evaluate next
Query :: Which measured IC50 value corresponds to CO[C@]12OO[C@](C)(CO)C=C1C(=O)C(C)(C)C(=O)C2(C)C ?
Result :: 40

----------
Each entry below carries its reported IC50.
# Tested on: Plasmodium falciparum
# Assay name: In vitro inhibition of Plasmodium falciparum in [3H]hypoxanthine incorporation assay
# Type: functional, organism-based
Hi! Could you send only the number? It should be in nM, unit omitted.

{"Molecule": "CO[C@]12OOC(C)(C)C=C1C(=O)C(C)(C)C(=O)C2(C)C", "IC50 / nM": 280}
{"Molecule": "C[C@@H]1CC[C@H]2[C@@H](C)C(=O)O[C@@H]3O[C@@]4(C)CC[C@@H]1[C@]32OO4 [ARTEMISININ]", "IC50 / nM": 15}
{"Molecule": "CO[C@]12OO[C@@](C)(CO)C=C1C(=O)C(C)(C)C(=O)C2(C)C", "IC50 / nM": 1400}

# evaluate next
Query :: Please tell me: IC50 of CO[C@]12OO[C@](C)(CO[Si](c3ccccc3)(c3ccccc3)C(C)(C)C)C=C1C(=O)C(C)(C)C(=O)C2(C)C , system Plasmodium falciparum?
Result :: 1400

----------
Each entry below carries its reported IC50.
# Tested on: Plasmodium falciparum
# Assay name: In vitro inhibition of Plasmodium falciparum in [3H]hypoxanthine incorporation assay
# Type: functional, organism-based

{"Structure smiles string": "CC1(C)C(=O)C2=C[C@](C)(CO)OO[C@]2(O)C(C)(C)C1=O", "Reading": "> 100 µM"}
{"Structure smiles string": "CC1(C)C(=O)C2=C[C@@](C)(CO)OO[C@]2(O)C(C)(C)C1=O", "Reading": "> 100 µM"}

# evaluate next
Query :: Please tell me: IC50 of CC1(C)C(=O)C2=C(OO[C@]3(C)CO[C@H]23)C(C)(C)C1=O , system Plasmodium falciparum?
Result :: > 100 µM
